experiment: NCI Yeast Anticancer Drug Screen. Data for the cln2 rad14 strain (AID 165);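 further: 0% = growth equal to vehicle treated cultures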; conditions: S. cerevisiae cln2 rad14 strain, at 50.0 µM, stronger effect = higher value
About 79,000 compounds went through this panel and 15% of them were active in at least one assay; those are over-represented in the sample as a whole.
PARAMETER MEASURED: growth inhibition (%)
A number alone suffices; assume %.

Here are 5 compounds together with their reported answers.
// sample `O=C(O)c1cccc(C#Cc2ccccc2)c1` , its growth inhibition was -15.4

Reported growth inhibition ( `NC12CCC(CC1)C2` ) = -6.25

Entry `CCCC(=O)SCC[N+](C)(C)C` — recorded growth inhibition = 21.6

Reported growth inhibition ( O=C1CC2C=CC(O)C(C1)C2 (stereo not drawn) ) = 21.1

Documented growth inhibition of `O=C(NCCNC(=O)c1cccc([N+](=O)[O-])c1O)c1cccc([N+](=O)[O-])c1O` : -9

New cases:
Lab note: `COc1ccc2cc(NC(=O)N/N=C\c3ccc(Cl)cc3)ccc2c1` gave growth inhibition of 4.4

Entry COC(=O)CC(c1ccc2c(c1)OCO2)N1CCOCC1 (stereo not drawn) , growth inhibition reported as -6.1

Value of measured growth inhibition for the entry `CCOC(=O)C(C(=O)OCC)C(C)(C)C` : -36.4

* * *

experiment: NCI Yeast Anticancer Drug Screen. Data for the rad50 strain (AID 155);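 further: 0% = growth of vehicle-only cultures of the same strain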; settings: S. cerevisiae rad50 strain growth inhibition; at 50.0 µM; stronger effect = higher value
This is part of a sample that, as a whole, favours compounds with a hit. Of some 79,000 tested, about 15% had one in any assay.
PARAMETER MEASURED: growth inhibition (%)
Give your result in % as a bare value.

Note to self: growth inhibition recorded for `CCOC(=O)Cn1c(=O)c2nc(SC)sc2n(-c2ccccc2)c1=O` was -19.9

Entry `COc1ccc(Nc2cnc3cc(N)ccc3n2)cc1OC` — recorded growth inhibition = -15.3

Item: COc1cc2c3c(c1)[nH]c(=S)n3C(=O)C(C)S2 (stereo not given) | growth inhibition: -15.9

Recorded result, `Clc1cccc(Cl)c1/C=N/Nc1nnc(N/N=C/c2c(Cl)cccc2Cl)c2ccccc12` , growth inhibition: 18.8

Notebook: `COc1c2cc(C(C)(C)C)cc1CSCc1cc(C(C)(C)C)cc(c1OC)CCCCC2` , growth inhibition read as -1.25

Read the next record carefully.
The molecule listed as `c1cc(Nc2ccncc2)ccn1` has a reported growth inhibition of 23.6

* * *

assay: NCI Yeast Anticancer Drug Screen. Data for the mec2-1 strain (AID 157); conditions: S. cerevisiae mec2-1 strain, at 50.0 µM
The panel holds about 79,000 compounds, 15% with a hit somewhere; the sample as a whole holds those more often. Activity calls are given as the source filed them. Cut-off read from the data, not from the text of the source: active = growth inhibition above about 70%; inactive = the rest.
A correct response names exactly one class from 1.0 for active, 0.0 for inactive

Completed entries (count: 10):
Which outcome did this test record for the compound `CN(Cc1ccccc1)C(=O)NC1CCCCC1` ? 0.0

Each compound tested received a call. Report the one for `CCCCCCC(=O)OC[n+]1ccc2c(C)c3[nH]c4ccc(OC)cc4c3c(C)c2c1` . 1.0

# outcome recorded in this test, key = `O=C(C[N+]12CN3CN(CN(C3)C1)C2)c1cccc2ccccc12` 0.0

Please share the test call associated with `Cc1onc(-c2ccccc2Cl)c1-c1nc2ccccc2c(=O)o1` . 1.0

// return assay outcome for `O=S(=O)(Nc1cccc(F)c1)c1ccc(F)cc1` 0.0

Kindly provide the recorded test outcome for the following compound: CC(C)CC(NS(=O)(=O)Cc1ccccc1)C(=O)NN (stereo unspecified) 0.0

Dear colleague, could you share the recorded outcome for `COc1cccc(OC)c1/C=C1\N=C(c2ccccc2)OC1=O` when you have a moment? 0.0

Could you kindly confirm the outcome this assay logged for `CC(CO)(CO)N1C(=O)c2cccc3cc([N+](=O)[O-])cc(c23)C1=O` ? 0.0

Can you look up the reported call for `Cc1ccc(-c2n[nH]c(=O)n2N)cc1` for me? 0.0

Which outcome was entered for the compound Cc1c(C(C)C(=O)O)c2ccccc2n1C (stereo unspecified) in this test? 0.0

Further cases:
For this compound, state the assay outcome: `N=C(N)C1CC1` 0.0

All figures here come from PubChem BioAssay (NCI).
